Each item that follows carries a reported composite z-score.
- method notes: small-molecule binders of probe aInhba, primary screen, biochemical, small-molecule microarray, 635/667 nm fluorescence (AID 1148);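 note: score merges 667nm spot fluorescence with signal-to-noise for antibody binding to printed compounds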
- measurement parameters: higher = more signal

compound	composite z-score
[N-]=[N+]=Nc1ccccc1[C@@H]1OC(c2ccc(OCCCO)cc2)=N[C@]1(Cc1ccccc1)C(=O)NCc1ccccc1	0.38
C=C(C)C1CCC(C(O)C2C=CC3C(=O)N(C)C(=O)C3N2Nc2cc(OC)c(OC)c(OC)c2)CC1 (stereo unspecified)	0.222
COCCCNC(=O)[C@@]1(c2ccc([N+](=O)[O-])cc2)CC(=O)N(CC23CC4CC(CC(C4)C2)C3)[C@@H]1c1ccc(CO)cc1I	0.0906
COc1ccc([Si](C)(C)[C@H]2[C@H](CCO)O[C@@]3(C(=O)N(Cc4ccccc4)c4ccc(N5C(=O)c6ccccc6Oc6ccccc65)cc43)[C@@H]2C)cc1	-0.128
O=C1C2C=CC(C(O)C=Cc3ccc([N+](=O)[O-])cc3)N(Nc3ccccc3)C2C(=O)N1c1ccccc1 (stereo unspecified)	0.117
[N-]=[N+]=NCc1ccccc1C[C@@]1(C(=O)N2CCCCC2)N=C(c2ccc(OCCCO)cc2)O[C@@H]1c1ccccc1CN=[N+]=[N-]	0.153
O=C1OCCC=C[C@H]2OC34C=CCN(c5ccc(Cl)cc5)C(=O)[C@H]3N(CCCCCCO)C(=O)[C@@H]4C12 (stereo partly specified)	0.0333
COCCOC(=O)N1C(=O)[C@@]2(c3cc(C#CC4=CCCCC4)ccc31)[C@H](C(=O)N1CCCCCCC1)[C@H]1C(=O)O[C@H](c3ccccc3)[C@H](c3ccccc3)N1[C@@H]2c1ccc(OCCO)cc1	0.515
C=C(CCCC)C(=O)CC[C@H](OC(C)=O)c1ccc(OCCO)cc1	-0.308
NC(=O)N1C(=O)C2C(C1=O)C1C=C(CCCO)C2C(C2CC2)N1Cc1cccc(OC(F)(F)F)c1 (stereo unspecified)	-0.182
CN(C)C(=O)[C@]1(CCS(=O)(=O)c2ccccc2)N=C(c2ccc(OCCCO)cc2)O[C@@H]1c1ccccc1	0.204
C=C(CCCC)/C(=C/C[C@H](OC(C)=O)c1ccc(OCCO)cc1)c1cc(C(=O)OC)ccc1OC	0.0363
CN(C)C(=O)[C@@]1(CCC(=O)OC(C)(C)C)N=C(c2ccc(OCCCO)cc2)O[C@H]1c1ccccc1CN=[N+]=[N-]	0.0857
COCCOC(=O)N1C(=O)[C@@]2(c3cc(C#CCC(C(=O)OC)C(=O)OC)ccc31)[C@H](c1ccc(OCCO)cc1)N1[C@H](c3ccccc3)[C@H](c3ccccc3)OC(=O)[C@H]1[C@@H]2C(=O)Nc1nc2ccccc2s1	-0.101
CCCNC(=O)[C@@]1(Sc2ccc(C)cc2)CC(=O)N(C(C)C)[C@@H]1c1ccc(CO)cc1I	-0.186
COc1ccc(C(=O)Nc2cccc(CN3C(=O)[C@]4(O[C@H](CCn5cc([C@H](O)c6ccccc6)nn5)[C@@H]([Si](C)(C)c5ccc(OC)cc5)[C@@H]4C)c4ccccc43)c2)cc1	-0.183
